tgt: T1, natural human IL-23 from activated THP-1 cells (human, UniProt P29460 23-328)
T1 sequence 1: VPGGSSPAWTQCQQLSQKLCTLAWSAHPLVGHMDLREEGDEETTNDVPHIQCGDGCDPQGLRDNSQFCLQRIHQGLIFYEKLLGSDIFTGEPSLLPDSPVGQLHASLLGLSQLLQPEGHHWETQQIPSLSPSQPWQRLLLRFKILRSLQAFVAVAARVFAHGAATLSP
T1 sequence 2: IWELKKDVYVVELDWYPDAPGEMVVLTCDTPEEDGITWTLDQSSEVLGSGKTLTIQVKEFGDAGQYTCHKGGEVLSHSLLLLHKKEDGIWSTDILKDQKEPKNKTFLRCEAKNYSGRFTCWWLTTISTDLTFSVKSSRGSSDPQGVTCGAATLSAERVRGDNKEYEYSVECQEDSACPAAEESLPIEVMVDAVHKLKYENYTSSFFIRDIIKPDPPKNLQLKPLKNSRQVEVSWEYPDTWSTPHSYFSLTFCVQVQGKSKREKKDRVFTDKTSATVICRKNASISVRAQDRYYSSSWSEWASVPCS
test details: cell-based or functional assay
Attribute: IC50, IL-23 stimulated IL-17 production from mouse splenocytes

For orientation, consider the following solved cases.
>  <binder>
34D9 (antibody, V domains shown, Mouse monoclonal antibody from hybridoma; also called 34D9Vk; 34D9VH7) VH: EVQLQQSGPELVKPGASVKIPCKASGYTFTDYNMDWVKKSHGKSLEWIGDINPHNGGTIYNQKFKGKATLTVDKSSSTAHMELRSLTSEDTAVYYCARNYYGSSYGWYFDVWGTGTTVTVSS VL: DIMMTQSHKFMSTSVGDRVSITCKASQDVGNAVVWYQQKPGQSPKLLIYWASTRHIGVPDRFTGSGSGTDFTLTITNVQSEDLADYFCQQYSSYLTFGAGTKLELK

>  <value measured>
0.456 nM

$$$$
>  <binder>
43F5 (antibody, V domains shown, Mouse monoclonal antibody from hybridoma; also called 43F5vk; 43F5vh) VH: EVQLQQSGPELVKPGASVKISCRASGYSFTGYYMNWVKQSPEKSLEWIGEIIPTTGGTSYNQKFKAKATLTVDKSSSTAYMQLKSLTSEDSAVYYCARESGGFYWYFDVWGTGTTVTVSS VL: DVVMTQSPLSLPVSLGDQASISCRSSQSLVHSNGNTYLHWYLLKPGQSPKLLIYKVSNRFSGVPDRFSGSGSGTDFTLKISRVEAEDLGVYFCSQSTHVPYTFGGGTKLEIK

>  <value measured>
8 nM

$$$$

Exercise: What value of measured IC50, IL-23 stimulated IL-17 production from mouse splenocytes is listed for 27G8 (antibody, V domains shown, Mouse monoclonal antibody from hybridoma; also called 27G8vk; 27G8vh) VH: QVQLQQSDAELVKPGASVKISCKVSGYTFTDHTIHWMKQRPEQGLEWIGYIYPRDGYPKFNEKFKGKATLTADKSSSTAYMQLNSLTSEDSAVYFCARRPPYYAMDYWGQGTSVAVSS VL: DIVLTQSPASLAVSLGQRATISCRASKSVSTSGYSYIHWYQQKPGQPPKFLIYLASNLDSGVPARFSGSGSGTDFTLNIHPVEEEDAATYYCQHSRELPYTFGGGTKLEIK ?
Key: 5 nM
